Source listed as PubChem BioAssay (NCATS).

- System: CP237
- EXPERIMENT_DESCRIPTION: qHTS profiling for inhibitors of Plasmodium falciparum proliferation (AID 504749); note: nearly all actives have a fitted effect of over 60% in size
- ASSAY_SETUP: P. falciparum in erythrocytes, SYBR Green DNA, 72 h; series mostly up to 12.8 µM
Results filed as inconclusive are left out. The source made the active and inactive calls. Calls come from the whole dose curve; as a rule, active = well fitted inhibition curve with a large enough effect; inconclusive = small, poorly fitted or top-dose-only effect; inactive = flat fitted curve, though single readings scatter.
Choose the fitting class; nothing outside yes for active, no for inactive is accepted.

{"columns": ["COMPOUND", "CAT"],
 "data": [
  ["CC(=O)O[C@H]1C[C@@]2(C)[C@H](C[C@@H](O)[C@H]3[C@@]4(C)CC[C@@H](O)[C@@H](C)[C@H]4CC[C@@]32C)C1=C(CCC=C(C)C)C(=O)O", "no"],
  ["CNC[C@H](O)c1ccc(OC(=O)C(C)(C)C)c(OC(=O)C(C)(C)C)c1", "no"],
  ["C[C@H](O)Cn1cnc2c1c(=O)n(C)c(=O)n2C", "no"],
  ["CN(C)CCn1nnnc1SCC1=C(C(=O)O)N2C(=O)[C@@H](NC(=O)Cc3csc(N)n3)[C@@H]2SC1", "no"],
  ["C=CCOc1ccccc1OC[C@H](O)CNC(C)C", "yes"]
]}

Input line: Which result was noted for this compound in the test: CCC(C)(C)C(=O)O[C@@H]1C[C@H](C)C=C2C=C[C@H](C)[C@@H](CC[C@H]3C[C@@H](O)CC(=O)O3)[C@H]21
Output line: no

Input line: Per the assay record, what outcome was assigned to C[C@H](C(=O)O)c1cccc(Oc2ccccc2)c1 ?
Output line: no

Input line: Record lookup: outcome of this test for C[N+]12CCC(CC1)[C@@H](OC(=O)C(O)(c1ccccc1)c1ccccc1)C2 ?
Output line: no

---

- TARGET_SYSTEM: Rap guanine nucleotide exchange factor 3 (Homo sapiens)
- EXPERIMENT_DESCRIPTION: Confirmatory qHTS for agonist of cAMP-regulated guanine nucleotide exchange factor 3 (EPAC1) (AID 1645881);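 note: EPAC1 catalysed release of BODIPY-GDP from Rap1B seen as fluorescence loss; nearly all actives have a fitted effect of over 75% in size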
- ASSAY_SETUP: EPAC1 Rap1B BODIPY-GDP exchange fluorescence; series mostly up to 154 µM
Inconclusive results are not listed. Active and inactive are the calls of the source. Calls follow the shape of the dose curve; as a rule, active = well fitted activation curve with a large enough effect; inconclusive = small, poorly fitted or top-dose-only effect; inactive = no such curve, though single readings can be large or run the other way.
A correct response names exactly one class from active, inactive

Example results:
{"columns": ["COMPOUND", "TARGET_SYSTEM", "CAT"],
 "data": [
  ["O=C(NC1CCC(O)CC1)c1cccc2cccnc12 (configuration not stated)", "Rap guanine nucleotide exchange factor 3 (Homo sapiens)", "inactive"],
  ["NNc1nc2c(Cl)c(Cl)ccc2s1", "Rap guanine nucleotide exchange factor 3 (Homo sapiens)", "inactive"],
  ["C=CCn1c(-c2ccc(S(=O)(=O)N3CCOCC3)cc2)csc1=Nc1ccccc1", "Rap guanine nucleotide exchange factor 3 (Homo sapiens)", "inactive"],
  ["CCOc1c(S(=O)(=O)N2CCCC2)ccc(Cl)c1Cl", "Rap guanine nucleotide exchange factor 3 (Homo sapiens)", "inactive"],
  ["Cc1ccc(Cl)cc1NC(=O)C(C)n1nc(-c2ccccc2)ccc1=O (configuration not stated)", "Rap guanine nucleotide exchange factor 3 (Homo sapiens)", "inactive"],
  ["COc1ccc(C(C#N)=Cc2cccc(OC)c2OC)cc1", "Rap guanine nucleotide exchange factor 3 (Homo sapiens)", "inactive"],
  ["c1ccc2c(N3CCCCCC3)nc(CN3CCCCC3c3nccs3)nc2c1 (configuration not stated)", "Rap guanine nucleotide exchange factor 3 (Homo sapiens)", "inactive"],
  ["CN(C)c1ccccc1C(=O)N1CCCC(C(=O)c2ccc3ccccc3c2)C1 (configuration not stated)", "Rap guanine nucleotide exchange factor 3 (Homo sapiens)", "inactive"]
]}

Input line: Would you mind telling me which call this test gave COc1cccc(/C(=N/O)C2CC2c2ccc(Cl)cc2)c1 (configuration not stated) ?
Output line: inactive

Input line: Please indicate how the test categorized CCOC(=O)c1cccc(NC(=O)N2CCC(CN3CCCCCC3)CC2)c1 .
Output line: inactive

Input line: What call does the record list for CC1CN(C(=O)CCC(=O)NCc2cccc(Cl)c2)c2ccccc2S1 (configuration not stated) ?
Output line: inactive
